Test system: MGC-803 cell line
Experiment: Cytotoxicity, SRB method
Assay type: cell-based
Conditions: MGC-803 human gastric cancer cell line
measuredMetric: IC50 (nM)
Answers are plain numbers, in nM.

Q: Entry COc1cc(-c2ccc(O)cc2)c(OC)c(O)c1-c1ccc(OC/C=C(\C)CO)c(O)c1 [Compound 7, Asperterphenyllin G] has what IC50?
Ans: 1000

* * *

Test system: Hela cell line
Experiment: Cytotoxicity, SRB method
Format: cell-based
Details: Hela human cervical cancer cell line
measuredMetric: IC50 (µM)
One number for each entry, in µM.

Q: Provide value of IC50 for this record tested with Hela cell line: `COc1cc(-c2ccc(O)cc2)c(OC)c(O)c1-c1ccc(OC/C=C(\C)CO)c(O)c1`
Ans: 1.7

* * *

Test system: BEL-7402 cell line
Test: Cytotoxicity, SRB method
Type: cell-based
Settings: BEL-7402 human hepatocarcinoma cell line
Procedure: All p-terphenyls (1–7) were tested for their cytotoxicity against the L-02, MGC-803, HCT-116, BEL-7402, A549, SH-SY5Y, Hela, U87, K562, HL-60, HO8910, and MCF-7 cell lines using either the SRB or the MTT method with adriamycin as positive control. […] The antimicrobial activities of compounds 1–7 were evaluated in vitro against Proteus species, Pseudomonas aeruginosa, Bacillus subtilis, B. cereus, and Mycobacterium phlei. […]
measuredMetric: pIC50
Answers are plain numbers, as −log10 of the molar value.

Q: Provide value of pIC50 for this record tested with BEL-7402 cell line: `COc1cc(-c2ccc(O)cc2)c(OC)c(O)c1-c1ccc(OC/C=C(\C)CO)c(O)c1`
Ans: 5.22

* * *

Molecular target: protein tyrosine phosphatase 1B (PTP1B) (Homo sapiens, UniProt P18031)
Sequence (P18031 1-435): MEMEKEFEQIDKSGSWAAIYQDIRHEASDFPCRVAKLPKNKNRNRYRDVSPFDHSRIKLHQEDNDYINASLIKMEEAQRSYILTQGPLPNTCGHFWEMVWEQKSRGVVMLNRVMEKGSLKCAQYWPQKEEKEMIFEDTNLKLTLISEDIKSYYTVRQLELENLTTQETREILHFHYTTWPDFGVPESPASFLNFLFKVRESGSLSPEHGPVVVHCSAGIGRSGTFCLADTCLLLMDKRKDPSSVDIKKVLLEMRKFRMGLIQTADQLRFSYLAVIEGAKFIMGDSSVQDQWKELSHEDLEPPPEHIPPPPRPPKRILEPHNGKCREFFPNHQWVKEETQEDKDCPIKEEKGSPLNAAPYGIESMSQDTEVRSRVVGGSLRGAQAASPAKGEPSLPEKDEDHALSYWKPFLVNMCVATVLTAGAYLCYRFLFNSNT
measuredMetric: IC50 (µM)
Numbers only, in µM.

Q: Entry `COc1c(-c2ccc(O)c(O)c2)cc(OC)c2c1oc1c(-c3c(O)c(O)cc4c3oc3c(OC)c(-c5ccc(O)c(O)c5)cc(OC)c34)c(O)c(O)cc12` has what IC50?
Ans: 21
